Tested target: SOS1 in K562 cells (Homo sapiens, UniProt Q07889)
Construct: endogenous in cells; host or cells: K562
Sequence (Q07889 1-1333): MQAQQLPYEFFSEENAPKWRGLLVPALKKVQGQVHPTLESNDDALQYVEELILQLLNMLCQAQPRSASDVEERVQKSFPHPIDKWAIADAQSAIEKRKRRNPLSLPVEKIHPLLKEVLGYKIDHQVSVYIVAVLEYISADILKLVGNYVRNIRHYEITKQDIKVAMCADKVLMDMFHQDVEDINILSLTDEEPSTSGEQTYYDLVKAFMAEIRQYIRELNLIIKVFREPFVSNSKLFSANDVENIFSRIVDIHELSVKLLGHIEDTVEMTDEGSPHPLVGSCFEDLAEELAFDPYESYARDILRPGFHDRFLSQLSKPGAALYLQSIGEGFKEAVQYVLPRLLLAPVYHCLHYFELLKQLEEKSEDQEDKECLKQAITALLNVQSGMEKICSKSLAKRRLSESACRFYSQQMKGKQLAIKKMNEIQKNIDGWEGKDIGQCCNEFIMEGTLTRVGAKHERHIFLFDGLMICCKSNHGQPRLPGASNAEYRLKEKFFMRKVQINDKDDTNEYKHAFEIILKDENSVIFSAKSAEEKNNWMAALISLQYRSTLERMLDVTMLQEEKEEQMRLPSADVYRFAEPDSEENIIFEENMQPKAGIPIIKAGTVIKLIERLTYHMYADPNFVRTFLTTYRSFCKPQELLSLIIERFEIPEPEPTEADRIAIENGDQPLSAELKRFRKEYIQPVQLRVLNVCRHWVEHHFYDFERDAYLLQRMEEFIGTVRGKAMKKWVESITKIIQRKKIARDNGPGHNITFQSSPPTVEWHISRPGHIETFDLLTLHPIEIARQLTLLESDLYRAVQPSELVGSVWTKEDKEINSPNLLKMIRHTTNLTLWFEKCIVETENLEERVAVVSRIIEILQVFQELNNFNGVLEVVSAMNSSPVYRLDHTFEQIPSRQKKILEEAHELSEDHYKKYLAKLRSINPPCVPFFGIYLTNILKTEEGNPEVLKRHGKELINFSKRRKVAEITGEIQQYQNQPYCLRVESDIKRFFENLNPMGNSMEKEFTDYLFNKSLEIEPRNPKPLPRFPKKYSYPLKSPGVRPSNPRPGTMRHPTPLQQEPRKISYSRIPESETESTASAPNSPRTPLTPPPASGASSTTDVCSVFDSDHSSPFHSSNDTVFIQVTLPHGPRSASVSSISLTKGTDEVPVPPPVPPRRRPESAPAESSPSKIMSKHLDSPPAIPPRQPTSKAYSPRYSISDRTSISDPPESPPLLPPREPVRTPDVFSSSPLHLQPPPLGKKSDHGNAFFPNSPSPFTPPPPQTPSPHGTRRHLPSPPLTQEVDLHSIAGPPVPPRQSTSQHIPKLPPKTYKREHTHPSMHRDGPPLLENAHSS
Assay overview: SOS1 degradation in K562 cells (Western blot)
Type: cell-based
Run parameters: 1.0 μM
Outcome measure: percent SOS1 degradation at 1 µM (%)

1) COc1cc2nc(C)nc(N[C@H](C)c3cc(N)cc(C(F)(F)F)c3)c2cc1O[C@H]1CCN(C(=O)CCCCCCCSc2cccc3c2CN(C2CCC(=O)NC2=O)C3=O)C1 (some centres unmarked) [SIAIS561096]: 49.7

(1) COc1cc2nc(C)nc(N[C@H](C)c3cc(N)cc(C(F)(F)F)c3)c2cc1OC1CCN(C(=O)CSc2cccc3c2CN(C2CCC(=O)NC2=O)C3=O)CC1 (some centres unmarked) [SIAIS561131]
(2) COc1cc2nc(C)nc(N[C@H](C)c3cc(N)cc(C(F)(F)F)c3)c2cc1O[C@H]1CCN(C(=O)CCCSc2cccc3c2CN(C2CCC(=O)NC2=O)C3=O)C1 (some centres unmarked) [SIAIS561094]
Determine, for 1 and 2 , which has the greater value of percent SOS1 degradation at 1 µM. Indicate which entry you chose by stating its label. 2

(A) COc1cc2nc(C)nc(N[C@H](C)c3cc(N)cc(C(F)(F)F)c3)c2cc1O[C@H]1CCN(C(=O)CCCCCCCCSc2cccc3c2CN(C2CCC(=O)NC2=O)C3=O)C1 (some centres unmarked) [SIAIS562079]
(B) COc1cc2nc(C)nc(N[C@H](C)c3cc(N)cc(C(F)(F)F)c3)c2cc1O[C@H]1CCN(C(=O)CCCCSc2cccc3c2CN(C2CCC(=O)NC2=O)C3=O)C1 (some centres unmarked) [SIAIS561086]
Dear colleague, could you let me know whether A or B has the lower recorded percent SOS1 degradation at 1 µM? Thanks. Identify your pick by its label. B

* * *

System: K562 cells
Assay overview: Proliferation, K562
Type: cell-based, human
Run parameters: Table S1 screening; read-out: IC50 (cell proliferation inhibition in K562 cells)
Method: Cells were inoculated onto 96-well plates and treated with compounds in serial dilutions for 3 or 5 days. […] The optical density (OD) values were obtained using a SPARK microplate reader (Tecan). IC50 was calculated using GraphPad Prism 8.0.2 (nonlinear regression analysis with four parameters). Drug synergy was evaluated with combination index (CI) values using CalcuSyn Demo Version 2.0 software. […]
Outcome measure: IC50 (nM)

1. COc1cc2nc(C)nc(N[C@H](C)c3cc(N)cc(C(F)(F)F)c3)c2cc1O[C@H]1CCN(CCCSc2cccc3c2CN(C2CCC(=O)NC2=O)C3=O)C1 (some centres unmarked) [SIAIS561084]: 1310
2. COc1cc2nc(C)nc(N[C@H](C)c3cc(N)cc(C(F)(F)F)c3)c2cc1O[C@H]1CCN(CCSc2cccc3c2CN(C2CCC(=O)NC2=O)C3=O)C1 (some centres unmarked) [SIAIS561091]: 1200

* * *

System: K562 cells
Assay overview: Proliferation, K562
Format: cell-based, human
Run parameters: Homo sapiens, K562, read-out: IC50 (cell proliferation inhibition in K562 cells)
Outcome measure: IC50 (nM)
Numeric only. Scale: nM

Return reported IC50; argument: COc1cc2nc(C)nc(N[C@H](C)c3cc(N)cc(C(F)(F)F)c3)c2cc1O[C@H]1CCOC1 [BI-3406] 199

* * *

Tested target: SOS1 in K562 cells (Homo sapiens)
Construct: endogenous in cells; host or cells: K562
Assay overview: SOS1 degradation in K562 cells (Western blot)
Assay type: cell-based
Run parameters: 1.0 μM
Outcome measure: percent SOS1 degradation at 1 µM (%)

1. COc1cc2nc(C)nc(N[C@H](C)c3cc(N)cc(C(F)(F)F)c3)c2cc1OC1CCN(C(=O)CCCCCCCCCSc2cccc3c2CN(C2CCC(=O)NC2=O)C3=O)CC1 (some centres unmarked): 15.7
2. COc1cc2nc(C)nc(N[C@H](C)c3cc(N)cc(C(F)(F)F)c3)c2cc1O[C@H]1CCN(C(=O)CCCCCCSc2cccc3c2CN(C2CCC(=O)NC2=O)C3=O)C1 (some centres unmarked): 3.9
3. COc1cc2nc(C)nc(N[C@H](C)c3cc(N)cc(C(F)(F)F)c3)c2cc1O[C@H]1CCN(C(=O)CCCCCCCCCCCSc2cccc3c2CN(C2CCC(=O)NC2=O)C3=O)C1 (some centres unmarked): 71
4. COc1cc2nc(C)nc(N[C@H](C)c3cc(N)cc(C(F)(F)F)c3)c2cc1O[C@H]1CCN(CCCCCCCCCCCSc2cccc3c2CN(C2CCC(=O)NC2=O)C3=O)C1 (some centres unmarked): 38.7
5. COc1cc2nc(C)nc(N[C@H](C)c3cc(N)cc(C(F)(F)F)c3)c2cc1OC1CCN(C(=O)CCCSc2cccc3c2CN(C2CCC(=O)NC2=O)C3=O)CC1 (some centres unmarked): -4

(a) COc1cc2nc(C)nc(N[C@H](C)c3cc(N)cc(C(F)(F)F)c3)c2cc1OC1CCN(C(=O)CCCCCSc2cccc3c2CN(C2CCC(=O)NC2=O)C3=O)CC1 (some centres unmarked)
(b) COc1cc2nc(C)nc(N[C@H](C)c3cc(N)cc(C(F)(F)F)c3)c2cc1O[C@H]1CCN(C(=O)CCCCCSc2cccc3c2CN(C2CCC(=O)NC2=O)C3=O)C1 (some centres unmarked)
(c) COc1cc2nc(C)nc(N[C@H](C)c3cc(N)cc(C(F)(F)F)c3)c2cc1OC1CCN(C(=O)CCCCCCCSc2cccc3c2CN(C2CCC(=O)NC2=O)C3=O)CC1 (some centres unmarked)
Order each entry by recorded percent SOS1 degradation at 1 µM, climbing from the minimum. # respond with the labels, arranged in the requested order c, a, b

* * *

System: SW620 cells (G12V)
Assay overview: 3D growth inhibition, SW620
Assay type: cell-based
Run parameters: Homo sapiens, SW-620, 120 h, read-out: IC50 (3D culture), SW620
Outcome measure: IC50 (µM)
Write the answer as a number in µM, unit excluded.

Can you share its IC50? I mean this compound: `COc1cc2nc(C)nc(N[C@H](C)c3cc(N)cc(C(F)(F)F)c3)c2cc1O[C@H]1CCOC1` 0.018
